Here, each record is paired with measured Dmax data.
experimentalSystem: Brd4 (L) (Homo sapiens)
Construct: endogenous in cells; host or cells: HEK293, HeLa
method: Concentration-dependent BET degradation, immunoblot, HEK293 cells
Format: cell-based
conditionSet: 6 h treatment, 1 nM-10 μM, read-out: Dmax (%) maximum degradation observed

In: Quick check: Dmax of CCCC(NC(=O)/C(C#N)=C/c1cccc(Br)n1)c1ccc(OCC=NOCC(=O)NCCOCCOCCOCCOCCOCCNC(=O)c2ccc3c(c2)[C@H](Nc2ccc(Cl)cc2)C[C@H](C)N3C(C)=O)cc1 (stereo partly drawn) ?
Out: ≥ 71%

---
In: Quick check: Dmax of CCCC(NC(=O)/C(C#N)=C/c1cccc(Br)n1)c1ccc(OCC=NOCC(=O)NCCOCCNC(=O)c2ccc3c(c2)[C@H](Nc2ccc(Cl)cc2)C[C@H](C)N3C(C)=O)cc1 (stereo partly drawn) ?
Out: ≥ 71%

In: Quick check: Dmax of CCCC(NC(=O)/C=C/c1cccc(Br)n1)c1ccc(OCCOCCOCCOCCOCCOCCOCCNC(=O)c2ccc(-c3ccc4c(c3)[C@H](Nc3ccc(Cl)cc3)C[C@H](C)N4C(C)=O)cc2)cc1 (stereo partly drawn) ?
Out: ≤ 25%

###

experimentalSystem: Brd4 (L) (Homo sapiens, UniProt O60885)
Construct: endogenous in cells; host or cells: HEK293, HeLa
method: Concentration-dependent BET degradation, immunoblot, HEK293 cells
Type: cell-based
conditionSet: 6 h treatment, 1 nM-10 μM
resultType: DC50

Some solved entries appear below for comparison.
In: Quick check: DC50 of CCCC(NC(=O)/C(C#N)=C/c1cccc(Br)n1)c1ccc(OCC=NOCC(=O)NCCOCCOCCOCCOCCOCCNC(=O)c2ccc3c(c2)[C@H](Nc2ccc(Cl)cc2)C[C@H](C)N3C(C)=O)cc1 (stereo partly drawn) ?
Out: ≤ 50 nM

In: Quick check: DC50 of CCCC(NC(=O)/C(C#N)=C/c1cccc(Br)n1)c1ccc(OCC=NOCC(=O)NCCOCCOCCOCCNC(=O)c2ccc3c(c2)[C@H](Nc2ccc(Cl)cc2)C[C@H](C)N3C(C)=O)cc1 (stereo partly drawn) ?
Out: ≤ 50 nM

Alright, here's another compound for you.
In: Quick check: DC50 of CCCC(NC(=O)/C(C#N)=C/c1nccs1)c1ccc(OCCOCCOCCOCCOCCOCCOCCNC(=O)c2ccc(-c3ccc4c(c3)[C@H](Nc3ccc(Cl)cc3)C[C@H](C)N4C(C)=O)cc2)cc1 (stereo partly drawn) ?
Out: ≤ 50 nM

###

experimentalSystem: Brd3 (Homo sapiens)
Sequence (Q15059 whole entry): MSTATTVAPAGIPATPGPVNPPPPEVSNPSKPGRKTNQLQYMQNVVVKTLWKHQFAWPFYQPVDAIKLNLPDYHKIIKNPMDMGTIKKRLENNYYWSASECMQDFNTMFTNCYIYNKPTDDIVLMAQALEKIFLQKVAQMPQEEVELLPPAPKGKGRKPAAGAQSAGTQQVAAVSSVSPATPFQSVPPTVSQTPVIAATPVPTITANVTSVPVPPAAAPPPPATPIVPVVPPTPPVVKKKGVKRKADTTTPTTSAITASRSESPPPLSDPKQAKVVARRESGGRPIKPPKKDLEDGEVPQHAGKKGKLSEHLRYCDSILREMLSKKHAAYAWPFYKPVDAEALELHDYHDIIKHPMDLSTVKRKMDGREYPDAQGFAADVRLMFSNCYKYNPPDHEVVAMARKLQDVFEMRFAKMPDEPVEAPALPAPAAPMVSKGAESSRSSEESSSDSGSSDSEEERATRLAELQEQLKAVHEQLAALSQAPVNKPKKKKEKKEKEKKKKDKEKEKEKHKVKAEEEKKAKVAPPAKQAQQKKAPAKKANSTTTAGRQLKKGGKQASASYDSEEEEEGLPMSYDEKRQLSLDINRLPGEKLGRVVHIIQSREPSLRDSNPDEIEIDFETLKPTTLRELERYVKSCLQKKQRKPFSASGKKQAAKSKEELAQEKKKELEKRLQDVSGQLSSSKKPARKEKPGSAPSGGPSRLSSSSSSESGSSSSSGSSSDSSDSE
method: Time-dependent BET degradation, immunoblot, HeLa cells
Type: cell-based
Design: endogenous in cells; host or cells: HeLa
conditionSet: Brd3, 1 μM, timecourse 0-8 h
resultType: Dmax at 1 µM (%)
Provide only the numeric value, understood in %.

Some solved entries appear below for comparison.
In: Quick check: Dmax at 1 µM of CCCC(NC(=O)/C(C#N)=C/c1cccc(Br)n1)c1ccc(OCC=NOCC(=O)NCCOCCOCCOCCOCCOCCNC(=O)c2ccc3c(c2)[C@H](Nc2ccc(Cl)cc2)C[C@H](C)N3C(C)=O)cc1 (stereo partly drawn) [Example 05IB3] ?
Out: 100

In: Quick check: Dmax at 1 µM of CCCC(NC(=O)/C(C#N)=C/c1nccs1)c1ccc(OCCOCCOCCOCCOCCOCCOCCNC(=O)c2ccc(-c3ccc4c(c3)[C@H](Nc3ccc(Cl)cc3)C[C@H](C)N4C(C)=O)cc2)cc1 (stereo partly drawn) [Example 05IB9] ?
Out: 80

In: Quick check: Dmax at 1 µM of CCCC(NC(=O)/C(C#N)=C/c1nc(Cl)ccc1Cl)c1ccc(OCCOCCOCCOCCOCCOCCOCCNC(=O)c2ccc(-c3ccc4c(c3)[C@H](Nc3ccc(Cl)cc3)C[C@H](C)N4C(C)=O)cc2)cc1 (stereo partly drawn) [Example 05IB10] ?
Out: 100

---
In: Quick check: Dmax at 1 µM of CCCC(NC(=O)/C(C#N)=C/c1cccc(Br)n1)c1ccc(OCC=NOCC(=O)NCCOCCOCCOCCNC(=O)c2ccc3c(c2)[C@H](Nc2ccc(Cl)cc2)C[C@H](C)N3C(C)=O)cc1 (stereo partly drawn) [Example 05IB2] ?
Out: 93

In: Quick check: Dmax at 1 µM of CCCC(NC(=O)/C(C#N)=C/c1cccc(Br)n1)c1ccc(OCC=NOCC(=O)NCCOCCNC(=O)c2ccc3c(c2)[C@H](Nc2ccc(Cl)cc2)C[C@H](C)N3C(C)=O)cc1 (stereo partly drawn) [Example 05IB1] ?
Out: 100

In: Quick check: Dmax at 1 µM of CCCC(NC(=O)/C(C#N)=C/c1cccc(Br)n1)c1ccc(OCCOCCOCCOCCOCCOCCOCCNC(=O)c2ccc(-c3ccc4c(c3)[C@H](Nc3ccc(Cl)cc3)C[C@H](C)N4C(C)=O)cc2)cc1 (stereo partly drawn) [Example 05IB6] ?
Out: 90

###

experimentalSystem: Brd4 (S) (Homo sapiens, UniProt O60885)
Construct: endogenous in cells; host or cells: HEK293, HeLa
method: Concentration-dependent BET degradation, immunoblot, HeLa cells
Assay type: cell-based
conditionSet: 6 h treatment, 1 nM-10 μM
resultType: DC50

In: Quick check: DC50 of CCCC(NC(=O)/C(C#N)=C/c1cccc(Br)n1)c1ccc(OCCOCCOCCOCCOCCOCCOCCNC(=O)c2ccc(-c3ccc4c(c3)[C@H](Nc3ccc(Cl)cc3)C[C@H](C)N4C(C)=O)cc2)cc1 (stereo partly drawn) ?
Out: ≤ 50 nM

###

experimentalSystem: Brd2 (Homo sapiens)
Sequence (P25440 whole entry): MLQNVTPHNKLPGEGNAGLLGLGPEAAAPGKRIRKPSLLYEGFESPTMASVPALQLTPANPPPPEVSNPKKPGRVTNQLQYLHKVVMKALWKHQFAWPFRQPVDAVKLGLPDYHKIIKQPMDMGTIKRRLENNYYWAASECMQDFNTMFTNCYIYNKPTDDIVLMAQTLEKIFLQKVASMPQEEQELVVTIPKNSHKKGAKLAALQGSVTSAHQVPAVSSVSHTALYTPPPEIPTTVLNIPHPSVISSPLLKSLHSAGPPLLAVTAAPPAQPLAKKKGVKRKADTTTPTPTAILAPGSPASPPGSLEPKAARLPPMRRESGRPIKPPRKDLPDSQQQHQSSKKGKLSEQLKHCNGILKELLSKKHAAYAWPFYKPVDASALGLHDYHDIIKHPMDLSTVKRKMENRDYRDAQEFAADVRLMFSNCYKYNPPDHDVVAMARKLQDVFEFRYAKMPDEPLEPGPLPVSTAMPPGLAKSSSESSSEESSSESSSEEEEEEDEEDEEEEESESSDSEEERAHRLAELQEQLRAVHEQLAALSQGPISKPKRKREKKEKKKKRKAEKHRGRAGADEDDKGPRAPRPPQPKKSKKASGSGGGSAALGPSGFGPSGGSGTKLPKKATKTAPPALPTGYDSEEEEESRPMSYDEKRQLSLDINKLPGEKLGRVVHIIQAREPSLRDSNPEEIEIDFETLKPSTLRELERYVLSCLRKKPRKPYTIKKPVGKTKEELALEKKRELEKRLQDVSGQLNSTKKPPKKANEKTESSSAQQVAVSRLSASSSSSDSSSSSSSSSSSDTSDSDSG
method: Concentration-dependent BET degradation, immunoblot, HEK293 cells
Assay type: cell-based
Set-up: endogenous in cells; host or cells: HEK293
conditionSet: HEK293, Brd2, 6 h treatment, 1 nM-10 μM
resultType: DC50

Some solved entries appear below for comparison.
In: Quick check: DC50 of CCCC(NC(=O)/C(C#N)=C/c1nc(Cl)ccc1Cl)c1ccc(OCCOCCOCCOCCOCCOCCOCCNC(=O)c2ccc(-c3ccc4c(c3)[C@H](Nc3ccc(Cl)cc3)C[C@H](C)N4C(C)=O)cc2)cc1 (stereo partly drawn) ?
Out: 51 to 500 nM

In: Quick check: DC50 of CCCC(NC(=O)/C(C#N)=C/c1cccc(Br)n1)c1ccc(OCCOCCOCCOCCOCCOCCOCCNC(=O)c2ccc(-c3ccc4c(c3)[C@H](Nc3ccc(Cl)cc3)C[C@H](C)N4C(C)=O)cc2)cc1 (stereo partly drawn) ?
Out: 51 to 500 nM

Alright, here's another compound for you.
In: Quick check: DC50 of CCCC(NC(=O)/C(C#N)=C/c1cccc(Br)n1)c1ccc(OCC=NOCC(=O)NCCOCCOCCOCCNC(=O)c2ccc3c(c2)[C@H](Nc2ccc(Cl)cc2)C[C@H](C)N3C(C)=O)cc1 (stereo partly drawn) ?
Out: 51 to 500 nM

###

experimentalSystem: Brd2 (Homo sapiens)
method: Time-dependent BET degradation, immunoblot, HeLa cells
Assay type: cell-based
Design: endogenous in cells; host or cells: HeLa
conditionSet: Brd2, 1 μM, timecourse 0-8 h
Description: Cell culture. HeLa (CCL-2) and HEK293 (CRL-1573) cells were purchased from ATCC and cultured in DMEM medium (Gibco) supplemented with 10% FBS, 100 μg/mL penicillin/streptomycin and L-glutamine. […] Immunoblotting. proteins were separated by SDS-PAGE on NuPage 4-12% Bis-Tris gels, followed by transfer to Amersham Protran 0.45 NC nitrocellulose membrane (GE Healthcare) using wet transfer. […] Degradation data was plotted and analysed using Prism (Graphpad, version 8). […]
resultType: Dmax at 1 µM
Reply with a number, then the unit it belongs to.

In: Quick check: Dmax at 1 µM of CCCC(NC(=O)/C(C#N)=C/c1cccc(Br)n1)c1ccc(OCC=NOCC(=O)NCCOCCOCCOCCNC(=O)c2ccc3c(c2)[C@H](Nc2ccc(Cl)cc2)C[C@H](C)N3C(C)=O)cc1 (stereo partly drawn) ?
Out: 50%

In: Quick check: Dmax at 1 µM of CCCC(NC(=O)/C(C#N)=C/c1cccc(Br)n1)c1ccc(OCCOCCOCCOCCOCCOCCOCCNC(=O)c2ccc(-c3ccc4c(c3)[C@H](Nc3ccc(Cl)cc3)C[C@H](C)N4C(C)=O)cc2)cc1 (stereo partly drawn) ?
Out: 79%

In: Quick check: Dmax at 1 µM of CCCC(NC(=O)/C(C#N)=C/c1cccc(Br)n1)c1ccc(OCC=NOCC(=O)NCCOCCOCCOCCOCCOCCNC(=O)c2ccc3c(c2)[C@H](Nc2ccc(Cl)cc2)C[C@H](C)N3C(C)=O)cc1 (stereo partly drawn) ?
Out: 54%

In: Quick check: Dmax at 1 µM of CCCC(NC(=O)/C(C#N)=C/c1nc(Cl)ccc1Cl)c1ccc(OCCOCCOCCOCCOCCOCCOCCNC(=O)c2ccc(-c3ccc4c(c3)[C@H](Nc3ccc(Cl)cc3)C[C@H](C)N4C(C)=O)cc2)cc1 (stereo partly drawn) ?
Out: 97%

In: Quick check: Dmax at 1 µM of CCCC(NC(=O)/C(C#N)=C/c1nccs1)c1ccc(OCCOCCOCCOCCOCCOCCOCCNC(=O)c2ccc(-c3ccc4c(c3)[C@H](Nc3ccc(Cl)cc3)C[C@H](C)N4C(C)=O)cc2)cc1 (stereo partly drawn) ?
Out: 76%

---
In: Quick check: Dmax at 1 µM of CCCC(NC(=O)/C(C#N)=C/c1cccc(Br)n1)c1ccc(OCC=NOCC(=O)NCCOCCNC(=O)c2ccc3c(c2)[C@H](Nc2ccc(Cl)cc2)C[C@H](C)N3C(C)=O)cc1 (stereo partly drawn) ?
Out: 100%
